The reader will find reported pKd values listed item by item below.
- system: NfnL (large subunit of NADH-dependent reduced-ferredoxin: NADP+ oxidoreductase NfnSL) (Pyrococcus furiosus, UniProt Q8U195, E126C)
- Construct: isolated NfnL subunit
- Sequence (Q8U195 whole entry E126C): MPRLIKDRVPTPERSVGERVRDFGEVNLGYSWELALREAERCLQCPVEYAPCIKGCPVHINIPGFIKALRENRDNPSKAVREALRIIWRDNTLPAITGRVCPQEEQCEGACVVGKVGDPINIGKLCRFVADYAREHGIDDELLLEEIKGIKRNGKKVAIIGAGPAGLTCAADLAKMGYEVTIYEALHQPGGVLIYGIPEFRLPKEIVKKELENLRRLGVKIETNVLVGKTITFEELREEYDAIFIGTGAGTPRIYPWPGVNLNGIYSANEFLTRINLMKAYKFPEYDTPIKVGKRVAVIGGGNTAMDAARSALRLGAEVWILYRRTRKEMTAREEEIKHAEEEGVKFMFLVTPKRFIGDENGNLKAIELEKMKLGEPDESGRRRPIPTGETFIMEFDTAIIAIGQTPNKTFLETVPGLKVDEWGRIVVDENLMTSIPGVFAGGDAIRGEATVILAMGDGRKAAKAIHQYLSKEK
- protocol: intrinsic protein fluorescence quenching titration (ex […] nm, em […] nm), quadratic tight-binding fit
pKd: −log10 of the molar value.

{"columns": ["compound", "pKd"],
 "data": [
  ["NC(=O)C1=CN([C@@H]2O[C@H](COP(=O)(O)OP(=O)(O)OC[C@H]3O[C@@H](n4cnc5c(N)ncnc54)[C@H](OP(=O)(O)O)[C@@H]3O)[C@@H](O)[C@H]2O)C=CC1 [NADPH]", 5.59],
  ["NC(=O)c1ccc[n+]([C@@H]2O[C@H](COP(=O)([O-])OP(=O)(O)OC[C@H]3O[C@@H](n4cnc5c(N)ncnc54)[C@H](OP(=O)(O)O)[C@@H]3O)[C@@H](O)[C@H]2O)c1 [NADP+]", 5.59]
]}
